Recorded values, source patent US12438175B2.

reported.conditions: pH 14
Measured Solubility, solution at pH 14 (KOH 1M) accompanies every entry in the list below.
observation.type: Solubility, solution at pH 14 (KOH 1M)

compound: O=C1c2ccccc2C(=O)c2c(OCCCS(=O)(=O)[O-])ccc(OCCCS(=O)(=O)[O-])c21.[Na+].[Na+] [Compound D3SNa]
observation.type: Solubility, solution at pH 14 (KOH 1M)
result.value: 0.44
--
compound: O=C(O)CCCOc1ccc(OCCCC(=O)O)c2c1C(=O)c1ccccc1C2=O [Compound D3CH]
observation.type: Solubility, solution at pH 14 (KOH 1M)
result.value: 0.42
--
compound: O=C1c2ccccc2C(=O)c2c(OCCCCS(=O)(=O)O)ccc(O)c21 [Compound M4SH]
observation.type: Solubility, solution at pH 14 (KOH 1M)
result.value: 0.46
--
compound: O=C1c2ccccc2C(=O)c2c(OCCCCS(=O)(=O)[O-])ccc(O)c21.[Na+] [Compound M4SNa]
observation.type: Solubility, solution at pH 14 (KOH 1M)
result.value: 0.88
--
compound: O=C(O)CCCCOc1ccc(OCCCCC(=O)O)c2c1C(=O)c1ccccc1C2=O [Compound D4CH]
observation.type: Solubility, solution at pH 14 (KOH 1M)
result.value: 0.46
--
compound: O=C1c2ccccc2C(=O)c2c(OCCCS(=O)(=O)O)ccc(O)c21 [Compound M3SH]
observation.type: Solubility, solution at pH 14 (KOH 1M)
result.value: 0.23
--
compound: O=C1c2ccccc2C(=O)c2c(OCCCCS(=O)(=O)O)ccc(OCCCCS(=O)(=O)O)c21 [Compound D4SH]
observation.type: Solubility, solution at pH 14 (KOH 1M)
result.value: 0.78
--
compound: O=C1c2ccccc2C(=O)c2c(OCCCS(=O)(=O)O)ccc(OCCCS(=O)(=O)O)c21 [Compound D3SH]
observation.type: Solubility, solution at pH 14 (KOH 1M)
result.value: 0.92
